# System: Staphylococcus aureus
# experiment-notes: Antimicrobial activity against […] Staphylococcus aureus RN4220 after 20 hrs by two-fold broth dilution assay
# Assay type: functional
# settings: RN4220, 20 h
Some compounds, each annotated with its measured MIC.
The reply must contain the numeric value and, after it, the unit.

[in] Recall and state the measured MIC for C=C[C@]1(C)C[C@@H](OC(=O)CSC(C)(C)CNC(=O)[C@H](N)C(C)C)[C@]2(C)[C@H](C)CC[C@]3(CCC(=O)[C@H]32)[C@@H](C)[C@@H]1O [VALNEMULIN] .
[out] 0.03 µg/mL

[in] Recall and state the measured MIC for `C=C[C@]1(C)C[C@@H](OC(=O)Cn2cc(-c3ccc(-n4cnc5c(N)ncnc54)cc3)nn2)[C@]2(C)[C@H](C)CC[C@]3(CCC(=O)[C@H]32)[C@@H](C)[C@@H]1O` .
[out] 0.5 µg/mL

[in] Recall and state the measured MIC for C=C[C@]1(C)C[C@@H](OC(=O)CSCCN(CC)CC)[C@]2(C)[C@H](C)CC[C@]3(CCC(=O)[C@H]32)[C@@H](C)[C@@H]1O [TIAMULIN] .
[out] 0.5 µg/mL

[in] Recall and state the measured MIC for `C=C[C@]1(C)C[C@@H](OC(=O)Cn2cc(CCCn3cnc4c(N)ncnc43)nn2)[C@]2(C)[C@H](C)CC[C@]3(CCC(=O)[C@H]32)[C@@H](C)[C@@H]1O` .
[out] 2 µg/mL

[in] Recall and state the measured MIC for `C=C[C@]1(C)C[C@@H](OC(=O)Cn2nncc2CCCn2cnc3c(N)ncnc32)[C@]2(C)[C@H](C)CC[C@]3(CCC(=O)[C@H]32)[C@@H](C)[C@@H]1O` .
[out] 4 µg/mL
